EGFR (human), P00533 [Inhibition of EGFR(L858RT/790M) Kinase Activity]: reported pIC50 for various compounds.
Sequence (P00533 whole entry, looked up, change not shown): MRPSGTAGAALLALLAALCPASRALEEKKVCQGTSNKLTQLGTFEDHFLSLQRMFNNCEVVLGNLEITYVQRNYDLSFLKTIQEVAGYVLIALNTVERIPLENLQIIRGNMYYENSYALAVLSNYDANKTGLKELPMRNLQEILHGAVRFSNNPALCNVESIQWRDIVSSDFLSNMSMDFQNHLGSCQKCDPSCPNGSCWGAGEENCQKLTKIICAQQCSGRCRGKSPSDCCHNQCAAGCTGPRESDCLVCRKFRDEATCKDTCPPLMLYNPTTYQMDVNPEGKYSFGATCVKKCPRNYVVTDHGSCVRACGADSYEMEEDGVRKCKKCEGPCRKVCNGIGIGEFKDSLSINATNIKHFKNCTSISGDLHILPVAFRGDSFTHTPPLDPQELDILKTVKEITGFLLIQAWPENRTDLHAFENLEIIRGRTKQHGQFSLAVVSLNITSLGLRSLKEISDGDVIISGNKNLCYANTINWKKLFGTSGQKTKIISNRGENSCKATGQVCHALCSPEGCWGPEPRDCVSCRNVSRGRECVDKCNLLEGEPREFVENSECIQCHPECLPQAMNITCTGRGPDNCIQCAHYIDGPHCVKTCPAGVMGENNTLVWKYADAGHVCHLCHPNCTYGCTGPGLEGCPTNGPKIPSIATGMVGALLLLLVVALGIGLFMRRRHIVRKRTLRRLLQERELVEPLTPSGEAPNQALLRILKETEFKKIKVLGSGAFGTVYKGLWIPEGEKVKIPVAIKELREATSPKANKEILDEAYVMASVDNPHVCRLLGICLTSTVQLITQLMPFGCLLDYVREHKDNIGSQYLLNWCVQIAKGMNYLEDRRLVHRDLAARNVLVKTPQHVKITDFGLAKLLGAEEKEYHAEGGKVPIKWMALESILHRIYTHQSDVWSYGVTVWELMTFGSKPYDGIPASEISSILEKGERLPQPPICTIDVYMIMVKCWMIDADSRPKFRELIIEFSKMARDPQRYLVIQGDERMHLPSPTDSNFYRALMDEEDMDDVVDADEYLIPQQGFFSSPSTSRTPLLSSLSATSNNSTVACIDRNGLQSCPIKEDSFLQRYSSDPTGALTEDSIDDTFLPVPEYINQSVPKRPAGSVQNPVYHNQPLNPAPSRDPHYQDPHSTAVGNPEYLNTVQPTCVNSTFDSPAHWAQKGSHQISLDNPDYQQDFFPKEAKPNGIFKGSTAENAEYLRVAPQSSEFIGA
pIC50: −log10 of the molar value.

- smiles.str: "C=CC(=O)N1CCc2c(sc3ncnc(N[C@H](CCO)c4ccccc4)c23)C1"
  value.observed: "6.30 to 8.00"

q: Complete the entry with pIC50 for "C=CS(=O)(=O)N1CCc2c(sc3ncnc(N[C@H](CO)c4ccccc4)c23)C1"
a: 5.60 to 6.30

q: Complete the entry with pIC50 for "C=CC(=O)N1CCc2c(sc3ncnc(N[C@@H](CCO)c4ccccc4)c23)C1"
a: 5.60 to 6.30

q: Complete the entry with pIC50 for "O=C(/C=C/CN1CCCCC1)N1CCc2c(sc3ncnc(N[C@H](CO)c4ccccc4)c23)C1"
a: 5.60 to 6.30
